Attribute: pIC50
Molecular target: Mcl-1/Bim interaction, recombinant human Mcl-1 (171-327) (Homo sapiens)
Construct: made in house
Sequence (Q07820 171-327): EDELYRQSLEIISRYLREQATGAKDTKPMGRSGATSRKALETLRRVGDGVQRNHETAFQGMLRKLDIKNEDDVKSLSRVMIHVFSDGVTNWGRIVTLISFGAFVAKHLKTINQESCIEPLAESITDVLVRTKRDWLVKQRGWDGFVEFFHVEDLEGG
Experiment: Cell free Mcl-1: Bim Affinity Assay (Mcl-1 HTRF)
Format: binding
Settings: TR-FRET, 0.1 nM Mcl-1 (171-327), 0.05 nM biotin-Bim (51-76)
Keep in mind that pIC50 stands for -log10 of concentration in molar terms.

Worked cases, pIC50 given:
* C[C@H]1[C@@H]2/C=C/[C@H](O)[C@@H]3CC[C@H]3CN3C[C@@]4(CCCc5cc(Cl)ccc54)COc4ccc(cc43)C(=O)NS(=O)(=O)[C@@H]1CCC2 | 9.20
* CC1CC(C)CS(=O)(=O)NC(=O)c2ccc3c(c2)N(CC2CCC2C(O)C1)CC1(CCCc2cc(Cl)ccc21)CO3 (single isomer, unassigned) [Example 270] | 8.99

// switching to the query compound
Reported pIC50 of O=C1NS(=O)(=O)[C@H]2CCC[C@@H](/C=C/[C@H](O)[C@@H]3CC[C@H]3CN3C[C@@]4(CCCc5cc(Cl)ccc54)COc4ccc1cc43)C2 (single isomer, unassigned) : 8.87
